system: KRAS PDC multicell spheroid viability; test: Anticancer human tumor 825966-067-R-J1-PDC patient-derived colon carcinoma cell line growth inhibition [KRAS2]; details: second compound 3.16 µM; first compound 10 µM; active = viability on the fitted dose curve at most 10% of control; inactive = the rest
Output constraint: value belongs to active, inactive

>  <compound>
CCNC(=O)CC1N=C(c2ccc(Cl)cc2)c2cc(OC)ccc2-n2c(C)nnc21 (stereo not given) + CC1OCC2(CCN(c3cnc(Sc4ccnc(N)c4Cl)c(N)n3)CC2)C1N

>  <answer-label>
inactive

$$$$
>  <compound>
O=C(c1cc(Cc2n[nH]c(=O)c3ccccc23)ccc1F)N1CCN(C(=O)C2CC2)CC1 + CNCc1ccccc1-c1csc(C(C)Nc2nc(C)nc3cc(OC)c(OC)cc23)c1

>  <answer-label>
active

$$$$
>  <compound>
CCNC(=O)CC1N=C(c2ccc(Cl)cc2)c2cc(OC)ccc2-n2c(C)nnc21 (stereo not given) + COc1cc2nc(C)nc(NC(C)c3cc(N)cc(C(F)(F)F)c3)c2cc1OC1CCOC1

>  <answer-label>
inactive

$$$$

Would you mind telling me which call this test gave COC(=O)c1ccc2c(C(=Nc3ccc(N(C)C(=O)CN4CCN(C)CC4)cc3)c3ccccc3)c(O)[nH]c2c1 + C=CC(=O)N1CCN(c2nc(OCC3CCCN3C)nc3c2CCN(c2cccc4cccc(C)c24)C3)CC1CC#N ?
active

Would you mind telling me which call this test gave COc1cc2nccc(Oc3ccc(NC(=O)C4(C(=O)Nc5ccc(F)cc5)CC4)cc3)c2cc1OC + COc1cc2nc(C)nc(NC(C)c3cc(N)cc(C(F)(F)F)c3)c2cc1OC1CCOC1 ?
active

====

Catalogue of viability, T/C values
system: KRAS PDC multicell spheroid viability; experiment: Anticancer human tumor 825966-067-R-J1-PDC cell line growth inhibition [KRAS2]; settings: compound 0.1 µM; hits give low values;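 also: spheroids exposed to compounds for 7 days; 100% = DMSO vehicle control viability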

Solved entries:
>  <compound>
CC1OCC2(CCN(c3cnc(Sc4ccnc(N)c4Cl)c(N)n3)CC2)C1N (stereo unspecified)

>  <result>
92.7% [middle of 19 runs]

$$$$
>  <compound>
COc1cc(OC)cc(N(CCNC(C)C)c2ccc3ncc(-c4cnn(C)c4)nc3c2)c1

>  <result>
89.2% [middle of 5 runs]

$$$$
>  <compound>
CCN1CCN(Cc2ccc(Nc3ncc(F)c(-c4cc(F)c5nc(C)n(C(C)C)c5c4)n3)nc2)CC1

>  <result>
95.5% [middle of 5 runs]

$$$$
>  <compound>
CC(=O)OC12COC1CC(O)C1(C)C(=O)C(O)C3=C(C)C(OC(=O)C(O)C(NC(=O)OC(C)(C)C)c4ccccc4)CC(O)(C(OC(=O)c4ccccc4)C21)C3(C)C (stereo unspecified)

>  <result>
18.5% [middle of 5 runs]

$$$$
>  <compound>
COC(=O)c1ccc2c(C(=Nc3ccc(N(C)C(=O)CN4CCN(C)CC4)cc3)c3ccccc3)c(O)[nH]c2c1

>  <result>
90.7% [middle of 5 runs]

$$$$
>  <compound>
CN(C)C/C=C/C(=O)Nc1cc2c(Nc3ccc(F)c(Cl)c3)ncnc2cc1O[C@H]1CCOC1

>  <result>
105% [middle of 5 runs]

$$$$
>  <compound>
O=C(c1cc(Cc2n[nH]c(=O)c3ccccc23)ccc1F)N1CCN(C(=O)C2CC2)CC1

>  <result>
88.5% [middle of 5 runs]

$$$$
>  <compound>
C=CC(=O)N1CCN(c2nc(OCC3CCCN3C)nc3c2CCN(c2cccc4cccc(C)c24)C3)CC1CC#N (stereo unspecified)

>  <result>
87.5% [middle of 17 runs]

$$$$

Looking up CC1(C)CCC(CN2CCN(c3ccc(C(=O)NS(=O)(=O)c4ccc(NCC5CCOCC5)c([N+](=O)[O-])c4)c(Oc4cnc5[nH]ccc5c4)c3)CC2)=C(c2ccc(Cl)cc2)C1 , I see its viability, T/C listed as 90.1% [middle of 5 runs]

Looking up COc1cc(Nc2ncc3c(n2)-c2ccc(Cl)cc2C(c2c(F)cccc2OC)=NC3)ccc1C(=O)O , I see its viability, T/C listed as 103% [middle of 5 runs]

Looking up Cn1nccc1Nc1nccc(-c2cc3c(s2)C(C)(C)N(CCN2CCOCC2)C3=O)n1 , I see its viability, T/C listed as 94.8% [middle of 5 runs]
